tested on: Escherichia coli; test: Binding affinity to Escherichia coli sliding clamp assessed as dissociation rate constant by ITC analysis
Where a SMILES comes first, the peptide text is derived from it. [ ]: non-standard residue; d: D form. The star is where a group is joined. Acryloyl(3-(3-pyridyl),E) = O=C(/C=C/c1cccnc1)*; Phe(3,4-F2) = N[C@@H](Cc1ccc(F)c(F)c1)C(=O)O; Oic = O=C(O)[C@@H]1C[C@@H]2CCCC[C@@H]2N1; Cinnamoyl(4-F) = O=C(/C=C/c1ccc(F)cc1)*; Hydrocinnamoyl = O=C(CCc1ccccc1)*; Cha = N[C@@H](CC1CCCCC1)C(=O)O; NMeD = CN[C@@H](CC(=O)O)C(=O)O; Sar = CNCC(=O)O
Measured K, listed per entry.
measured.metric: K

molecule	result
CC(=O)N[C@@H](CCC(N)=O)C(=O)N[C@@H](CC1CCCCC1)C(=O)N(C)[C@@H](CC(=O)O)C(=O)N[C@@H](CC(C)C)C(=O)N[C@@H](Cc1ccccc1)C(=O)O (Ac-Q[Cha][NMeD]LF-OH)	1.9 10^-2/s
CC(=O)N[C@@H](CCC(N)=O)C(=O)N[C@@H](CC1CCCCC1)C(=O)N[C@@H](CC(=O)O)C(=O)N[C@@H](CC(C)C)C(=O)N1[C@H](C(=O)N[C@@H](CC(C)C)C(=O)O)C[C@@H]2CCCC[C@@H]21 (Ac-Q[Cha]DL[Oic]L-OH)	3.9 10^-3/s
CC(C)C[C@H](NC(=O)[C@H](CC(=O)O)NC(=O)[C@H](CC1CCCCC1)NC(=O)[C@H](CCC(N)=O)NC(=O)CCc1ccccc1)C(=O)N[C@@H](Cc1ccccc1)C(=O)O (Hydrocinnamoyl-Q[Cha]DLF-OH)	6.7 10^-3/s
CC(=O)N[C@@H](CCC(N)=O)C(=O)N[C@@H](CC1CCCCC1)C(=O)N[C@@H](CC(=O)O)C(=O)N[C@@H](CC(C)C)C(=O)N1[C@H](C(=O)N[C@@H](Cc2ccccc2)C(=O)O)C[C@@H]2CCCC[C@@H]21 (Ac-Q[Cha]DL[Oic]F-OH)	7.1 10^-3/s
CC(=O)N[C@@H](CCC(N)=O)C(=O)N[C@@H](CC1CCCCC1)C(=O)N[C@@H](CC(=O)O)C(=O)N[C@@H](CC(C)C)C(=O)N(C)CC(=O)N[C@@H](CC(C)C)C(=O)O (Ac-Q[Cha]DL[Sar]L-OH)	2.1 10^-2/s
CC(=O)N[C@@H](CCC(N)=O)C(=O)N[C@@H](CC1CCCCC1)C(=O)N(C)[C@@H](CC(=O)O)C(=O)N[C@@H](CC(C)C)C(=O)N[C@@H](Cc1ccc(F)c(F)c1)C(=O)O (Ac-Q[Cha][NMeD]L[Phe(3,4-F2)]-OH)	8.4 10^-3/s
CC(C)C[C@H](NC(=O)[C@H](CC(=O)O)N(C)C(=O)[C@H](CC1CCCCC1)NC(=O)[C@H](CCC(N)=O)NC(=O)/C=C/c1ccc(F)cc1)C(=O)N[C@@H](Cc1ccc(F)c(F)c1)C(=O)O ({Cinnamoyl(4-F)}-Q[Cha][NMeD]L[Phe(3,4-F2)]-OH)	5.7 10^-3/s
CC(C)C[C@H](NC(=O)[C@H](CC(=O)O)N(C)C(=O)[C@H](CC1CCCCC1)NC(=O)[C@H](CCC(N)=O)NC(=O)/C=C/c1cccnc1)C(=O)N1[C@H](C(=O)N[C@@H](Cc2ccccc2)C(=O)O)C[C@@H]2CCCC[C@@H]21 ({Acryloyl(3-(3-pyridyl),E)}-Q[Cha][NMeD]L[Oic]F-OH)	5.5 10^-3/s
